meta.source: PubChem BioAssay AID1159580

- assayInfo: chemical genetic growth profiling, strain panel (AID 1159580);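 note: tested at 20 µM; growth read once vehicle control cultures reached saturation at 30 °C; lower values mean less growth of the strain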
- protocolConditions: S. cerevisiae deletion strains, growth OD, locus YLR371W, strain rom2
Among all 5,500 compounds or so, about 2,000 (36%) were called active. Roughly 18% stayed inconclusive and do not appear here. Cut-off read from the data, not from the text of the source: active = normalized growth mostly below about 0.91 (no sharp cut-off); inconclusive = no clear call, values can overlap the other calls; inactive = mostly above about 0.92. This is one part of the list.
Labels: TRUE for active, FALSE for inactive

>>> print(df.to_string())
                                    molecule  labelvalue
 0  CCC(C)c1cnc(CC(C)C)c(=O)n1O (stereo unspecified)       FALSE
 1                CC(=O)OCC[C@H](C)CCC=C(C)C       FALSE
 2                    Cc1cccc(C)c1NC1=NCCCS1       FALSE
 3  C=C1C(C)C2C(Cc3ccccc3)NC(=O)C23OC(=O)/C=C/C(O)CCCC(C)C/C=C/C3C1O (stereo unspecified)       FALSE
 4  O=C(C1CCCCC1)N1CC(=O)N2CCc3ccccc3C2C1 (stereo unspecified)       FALSE
 5  CC(C)COCC(CN(Cc1ccccc1)c1ccccc1)N1CCCC1 (stereo unspecified)       FALSE
 6  CC[C@H](C)C(=O)O[C@H]1CCC=C2C=C[C@H](C)C(CCC3C[C@@H](O)CC(=O)O3)[C@H]21 (stereo partly specified)       FALSE
 7         CCCCOC(=O)c1ccccc1C(=O)OCc1ccccc1       FALSE
 8                         NC(=O)c1cccc(N)c1       FALSE
 9  O=C(O)CN(CC(=O)O)Cc1cc2c(-c3ccccc3C(=O)O)c3cc(CN(CC(=O)O)CC(=O)O)c(=O)cc-3oc2cc1O       FALSE
10              CCCCNc1ccc(C(=O)OCCN(C)C)cc1       FALSE
11        O=C(O)CN1C(=O)c2cccc3cccc(c23)C1=O       FALSE
12                        Cc1cccc(C(=O)O)c1O       FALSE
13           CCCCN(CCCC)CCCOC(=O)c1ccc(N)cc1       FALSE
14  NS(=O)(=O)c1cc2c(cc1Cl)NC(C(Cl)Cl)NS2(=O)=O (stereo unspecified)       FALSE
15  C=C1CCC(OC(C)=O)/C(C)=C/C[C@@H]2[C@@H]1CC2(C)C (stereo partly specified)       FALSE
16      CC1OC1P(=O)(O)O (stereo unspecified)       FALSE
17  CC(C)C(=O)Nc1ccc([N+](=O)[O-])c(C(F)(F)F)c1       FALSE
18  C#CCCCCCCCCCCCC(O)CC(O)CO (stereo unspecified)       FALSE
19                     CCCCOC(=O)c1ccc(N)cc1        TRUE
20  COc1cc([C@@H]2c3cc4c(c(O)c3C[C@H]3COC(=O)[C@@H]32)OCO4)cc(OC)c1OC       FALSE
21  C=C1C(C)C2C(Cc3ccccc3)NC(=O)C23OC(=O)/C=C/C(=O)CCCC(C)C/C=C/C3C1O (stereo unspecified)       FALSE
22  C/C1=C\CCC(=O)C2CC(C)(C)C2CC1 (stereo unspecified)       FALSE
23  CC1(C)O[C@H]2[C@H](O)C[C@](O)(C(N)=O)C[C@H]2O1       FALSE
24  NC[C@@H]1CC[C@@H](N)[C@@H](O[C@H]2[C@H](O)[C@@H](O[C@H]3O[C@H](CO)[C@@H](O)[C@H](N)[C@H]3O)[C@H](N)C[C@@H]2N)O1       FALSE
25                        O=c1[nH]oc2c1CCNC2       FALSE
26  COc1ccc(CCN2CCC(Nc3nc4ccccc4n3Cc3ccc(F)cc3)CC2)cc1       FALSE
27                Cn1c(=O)c2[nH]cnc2n(C)c1=O       FALSE
28        OC(Cn1cncn1)(Cn1cncn1)c1ccc(F)cc1F       FALSE
29                   Clc1cccc(Cl)c1NC1=NCCN1       FALSE
30  COc1ccc2c(c1)CCC(c1ccccc1)=C2c1ccc(OCCN2CCCC2)cc1        TRUE
